tested on: Jurkat; test: Antiproliferative activity against human Jurkat T cells after 48 hrs; assay type: functional, cell-based

- smiles-text: "COc1cccc(-c2cc(C(=O)Nc3cc4cc(OC)c(OC(C)=O)c(C)c4oc3=O)ccc2OC)c1"
  IC50 [µM]: 0.416

----------
target: Heat shock protein HSP90 (Homo sapiens, UniProt P07900+P08238); assay: Binding affinity to HSP90 (unknown origin) by SPR analysis
pKd: −log10 of the molar value.

- smiles-text: "COc1cccc(-c2cc(C(=O)Nc3cc4cc(OC)c(OC(C)=O)c(C)c4oc3=O)ccc2OC)c1"
  pKd: "5.70 to 6.00"
